Cited source for all entries: ChEMBL document CHEMBL5579853

What EC50 was measured for each of the following?
Biological target: Endothelial PAS domain-containing protein 1 (Homo sapiens)
Sequence (Q99814 whole entry, the tested form may be a part): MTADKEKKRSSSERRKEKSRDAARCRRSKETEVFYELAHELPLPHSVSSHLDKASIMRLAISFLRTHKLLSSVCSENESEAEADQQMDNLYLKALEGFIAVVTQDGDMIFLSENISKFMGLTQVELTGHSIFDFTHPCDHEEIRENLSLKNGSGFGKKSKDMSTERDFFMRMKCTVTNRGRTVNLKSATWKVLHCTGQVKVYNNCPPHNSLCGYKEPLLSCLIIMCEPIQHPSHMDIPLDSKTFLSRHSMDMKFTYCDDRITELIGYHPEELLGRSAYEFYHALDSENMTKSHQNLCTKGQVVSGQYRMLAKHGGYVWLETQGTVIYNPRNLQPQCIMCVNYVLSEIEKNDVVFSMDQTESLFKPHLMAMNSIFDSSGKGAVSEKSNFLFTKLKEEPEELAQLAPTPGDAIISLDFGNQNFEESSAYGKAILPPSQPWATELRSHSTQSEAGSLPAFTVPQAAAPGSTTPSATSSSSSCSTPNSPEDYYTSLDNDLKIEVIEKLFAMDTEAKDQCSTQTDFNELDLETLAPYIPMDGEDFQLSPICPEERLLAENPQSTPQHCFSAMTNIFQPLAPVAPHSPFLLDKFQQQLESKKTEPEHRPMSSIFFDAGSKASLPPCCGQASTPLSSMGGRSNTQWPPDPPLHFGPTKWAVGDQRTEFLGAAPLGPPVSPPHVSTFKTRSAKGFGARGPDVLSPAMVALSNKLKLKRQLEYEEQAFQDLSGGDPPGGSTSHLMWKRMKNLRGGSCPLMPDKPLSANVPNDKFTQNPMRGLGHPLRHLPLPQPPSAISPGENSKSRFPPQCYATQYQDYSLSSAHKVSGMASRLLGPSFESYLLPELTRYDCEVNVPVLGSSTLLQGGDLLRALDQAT
Test: Inhibition of HIF-2alpha (unknown origin)
Give bare numbers, in µM.

Provide EC50 for all items below, preserving their order.
1. CS(=O)(=O)c1sc(N2CCCc3ccccc32)c2c1[C@H](O)[C@H](F)C2
2. OC1c2c(C(F)(F)F)cn(-c3cncc(F)c3)c2CC(F)C1F (centres undefined)
3. CP(C)(=O)c1ccc(Oc2cc(F)cc(F)c2)c2c1C(O)C(F)(F)C2 (centres undefined)
4. O[C@H]1c2c(C(F)(F)F)ncc(OC3CC(F)(F)C3)c2[C@@H](F)[C@H]1F
5. CS(=O)(=O)c1ccc(N2CCCc3ccccc32)c2c1[C@H](O)[C@H](F)C2
6. O[C@@H]1CCc2c(Oc3cc(F)cc(F)c3)ncnc21

**A:**
2.2
0.5
0.029
0.021
0.34
0.011
